Test system: Arthrobacter sp. BP2 chnB monooxygenase
Assay: chnB monooxygenase activity assay, NADPH oxidation at 340 nm, purified over-expressed enzyme
Format: biochemical
Conditions: 1.25 mM substrate, pH 7.5; ND = No Activity Detected
Quick reference: Specific Activity of Monooxygenase Enzymes Against Various Ketone Substrates, sp. BP2 chnB of the listed items.
measureName: Specific Activity of Monooxygenase Enzymes Against Various Ketone Substrates, sp. BP2 chnB (µmol/min/mg)

> print(dat)
                                compound  value
1             O=C1CCCCC1 [Cyclohexanone]  3.565
2               O=C1CCC1 [Cyclobutanone]  0.128
3  O=C1CCCC(=O)C1 [1,3-cyclohexanedione]  0.397

Hello, the source for this data is patent US20040267001A1, in case you need it.
